Record form. Attribute: Condition 1 Conversion (%). Fill in for each entry.
# Type: physicochemical
# experimental parameters: SGF with pepsin, pH 1.5, 37° C., 0.5 mM; time 1 min
Entry rule: numbers only, all in %.

Input line: Look at this compound and give its reported Condition 1 Conversion (%). COc1ccc([C@@]23CCC(=NNCc4ccccn4)C[C@@H]2N(C)CC3)cc1OC
Output line: 30

Input line: Look at this compound and give its reported Condition 1 Conversion (%). COc1ccc([C@@]23CCC(OC(=O)C(c4ccccc4)c4ccccc4)=C[C@@H]2N(C)CC3)cc1OC
Output line: 0

Input line: Look at this compound and give its reported Condition 1 Conversion (%). COc1ccc([C@@]23CCC(=NNc4cnccn4)C[C@@H]2N(C)CC3)cc1OC
Output line: 0

Input line: Look at this compound and give its reported Condition 1 Conversion (%). COc1ccc([C@@]23CCC(=NOCCOc4ccccc4)C[C@@H]2N(C)CC3)cc1OC
Output line: 0

Input line: Look at this compound and give its reported Condition 1 Conversion (%). COc1ccc([C@@]23CCC(=NOCC4CC4)C[C@@H]2N(C)CC3)cc1OC
Output line: 0

Input line: Look at this compound and give its reported Condition 1 Conversion (%). COc1ccc([C@@]23CCC(=NOC4CCCCO4)C[C@@H]2N(C)CC3)cc1OC (stereo partly shown)
Output line: 0

Input line: Look at this compound and give its reported Condition 1 Conversion (%). COc1ccc([C@@]23CCC(=NNCc4cccc(C)c4)C[C@@H]2N(C)CC3)cc1OC
Output line: 100

Input line: Look at this compound and give its reported Condition 1 Conversion (%). COc1ccc([C@@]23CC/C(=N\NC(=O)CCC(=O)O)C[C@@H]2N(C)CC3)cc1OC
Output line: 60

Input line: Look at this compound and give its reported Condition 1 Conversion (%). COc1ccc([C@@]23CCC(=NNc4ccc5ccccc5n4)C[C@@H]2N(C)CC3)cc1OC
Output line: 0

Input line: Look at this compound and give its reported Condition 1 Conversion (%). COc1ccc([C@@]23CC/C(=N/NC(=O)Nc4ccccc4Cl)C[C@@H]2N(C)CC3)cc1OC
Output line: 0

Input line: Look at this compound and give its reported Condition 1 Conversion (%). COc1ccc([C@@]23CCC(=NOc4ccccc4)C[C@@H]2N(C)CC3)cc1OC
Output line: 0

Input line: Look at this compound and give its reported Condition 1 Conversion (%). COc1ccc([C@@]23CCC(=NNC(=O)COc4ccccc4)C[C@@H]2N(C)CC3)cc1OC
Output line: 100

Input line: Look at this compound and give its reported Condition 1 Conversion (%). COc1ccc([C@@]23CCC(OC(=O)C4CC4)=C[C@@H]2N(C)CC3)cc1OC
Output line: 0

----------
# experimental parameters: 0.5 h, 10 μM
Rule: measured Prodrug (%) remaining, Rat Plasma below 30% gets TRUE; anything equal to or greater than 30% gets FALSE.

Input line: For CCCC(C)(C)C(=O)OC1=C[C@@H]2N(C)CC[C@]2(c2ccc(OC)c(OC)c2)CC1 , is the recorded Prodrug (%) remaining, Rat Plasma below the cut-off of 30%?
Output line: FALSE

Input line: For COCCOCCC(=O)OC1=C[C@@H]2N(C)CC[C@]2(c2ccc(OC)c(OC)c2)CC1 , is the recorded Prodrug (%) remaining, Rat Plasma below the cut-off of 30%?
Output line: TRUE

Input line: For COc1ccc([C@@]23CCC(OC(=O)c4cccc(C)c4)=C[C@@H]2N(C)CC3)cc1OC , is the recorded Prodrug (%) remaining, Rat Plasma below the cut-off of 30%?
Output line: TRUE

Input line: For COc1ccc([C@@]23CCC(OC(=O)c4cccc(C)c4C)=C[C@@H]2N(C)CC3)cc1OC , is the recorded Prodrug (%) remaining, Rat Plasma below the cut-off of 30%?
Output line: FALSE

Input line: For COc1ccc([C@@]23CCC(OC(=O)c4c(C)cccc4C)=C[C@@H]2N(C)CC3)cc1OC , is the recorded Prodrug (%) remaining, Rat Plasma below the cut-off of 30%?
Output line: FALSE

Input line: For COc1ccc([C@@]23CCC(OC(=O)c4ccc(C(C)C)cc4)=C[C@@H]2N(C)CC3)cc1OC , is the recorded Prodrug (%) remaining, Rat Plasma below the cut-off of 30%?
Output line: TRUE

Input line: For CCC(C)(CC)C(=O)OC1=C[C@@H]2N(C)CC[C@]2(c2ccc(OC)c(OC)c2)CC1 , is the recorded Prodrug (%) remaining, Rat Plasma below the cut-off of 30%?
Output line: FALSE

Input line: For CCC(CC)C(=O)OC1=C[C@@H]2N(C)CC[C@]2(c2ccc(OC)c(OC)c2)CC1 , is the recorded Prodrug (%) remaining, Rat Plasma below the cut-off of 30%?
Output line: FALSE

Input line: For COCCCCC(=O)OC1=C[C@@H]2N(C)CC[C@]2(c2ccc(OC)c(OC)c2)CC1 , is the recorded Prodrug (%) remaining, Rat Plasma below the cut-off of 30%?
Output line: TRUE

----------
Record form. Attribute: Human Plasma Prodrug (%). Fill in for each entry.
# assay overview: Plasma Stability Assay of Example A3, human plasma
# experimental parameters: 30 min; 5 μM, 37° C.; % of prodrug compound remaining
Entry rule: numbers only, all in %.

Input line: Look at this compound and give its reported Human Plasma Prodrug (%). COc1ccc([C@@]23CCC(OC(=O)c4cccc(N(C)C)c4)=C[C@@H]2N(C)CC3)cc1OC
Output line: 87.6

Input line: Look at this compound and give its reported Human Plasma Prodrug (%). COc1ccc([C@@]23CCC(OC(=O)c4cccc(C)c4)=C[C@@H]2N(C)CC3)cc1OC
Output line: 88

Input line: Look at this compound and give its reported Human Plasma Prodrug (%). COc1ccc([C@@]23CCC(OC(=O)c4ccc(C(C)C)cc4)=C[C@@H]2N(C)CC3)cc1OC
Output line: 92

----------
# Type: physicochemical
# experimental parameters: DI water, 25° C., 0.5 mM; time 30 min
Record form. Attribute: Condition 2 Conversion (%). Fill in for each entry.
Entry rule: numbers only, all in %.

Input line: Look at this compound and give its reported Condition 2 Conversion (%). COc1ccc([C@@]23CC/C(=N\NC(=O)Nc4ccccc4Cl)C[C@@H]2N(C)CC3)cc1OC
Output line: 0

Input line: Look at this compound and give its reported Condition 2 Conversion (%). COc1ccc([C@@]23CCC(=NOCc4cccnc4)C[C@@H]2N(C)CC3)cc1OC
Output line: 0

Input line: Look at this compound and give its reported Condition 2 Conversion (%). COc1ccc([C@@]23CC/C(=N/OC45CC6CC(CC(C6)C4)C5)C[C@@H]2N(C)CC3)cc1OC [Compound 274]
Output line: 0

Input line: Look at this compound and give its reported Condition 2 Conversion (%). COc1ccc([C@@]23CCC(=NNc4cnccn4)C[C@@H]2N(C)CC3)cc1OC
Output line: 10.11

Input line: Look at this compound and give its reported Condition 2 Conversion (%). COc1ccc([C@@]23CCC(=NNC(=O)C(=O)O)C[C@@H]2N(C)CC3)cc1OC
Output line: 30

Input line: Look at this compound and give its reported Condition 2 Conversion (%). COc1ccc([C@@]23CCC(OC(=O)C4CC4)=C[C@@H]2N(C)CC3)cc1OC
Output line: 0
